- Tested on: BT-549 breast
- Test Summary: NCI-60 one-dose screen, 48 h (100 = growth as untreated, 0 = no growth, -100 = all killed)
- Condition Summary: 10 µM unless noted
Compounds without any hit were thinned out: in the full panel of roughly 83,000, 20% have a hit.
In this section we review reported growth values for a set of molecules.
Give just the number in %; leave the unit off.

The cases that follow already have their growth on record.
CN1CCN(Cc2ccc(NC(=O)c3cncc(C#Cc4cnc5ccc(OC6CCOCC6)nn45)c3)cc2C(F)(F)F)CC1 :: -82.7
Nc1nc(=O)n([C@H]2C[C@H](O)[C@@H](CO)O2)cc1C=O :: 116
O=c1c2cc(-c3ccc(F)cc3F)ccc2n(Nc2ccccc2)c(=O)n1-c1cccc(C(F)(F)F)c1 :: 3.91
CCOC(=O)c1c(NCC(=O)Nc2cccc([N+](=O)[O-])c2)sc(C(C)=O)c1C :: -40.7
COc1ccc(/C=N/NC(=O)c2c(N)nn(C)c2Nc2ccccc2)cc1 :: 14

// lookup growth for N#C/C(=C\c1cccc2c1OCO2)C(=O)Nc1sc2c(c1C#N)CCCC2
107

// lookup growth for Cn1cc(-c2nnc(N)nc2-c2c[nH]c3ccc(F)cc23)c2cc(Br)ccc21
11.1

// lookup growth for CCCCCc1ccc(S(=O)(=O)Nc2cc(-c3csc(N)n3)ccc2OC)cc1
102

// lookup growth for COc1ccc(OC)c(NC(=O)CCCCCCNC(=O)C(O)(O)C(F)(F)F)c1
76.8

// lookup growth for C#CCOc1ccc(/C=N/Nc2nc(-c3ccc(OC)cc3)cs2)cc1
89.1
